- targetOrTestSystem: NDM-1 (Klebsiella pneumoniae)
- Construct: made in house
- assayMethodText: NDM-1 inhibition, fluorogenic cephalosporin (FC5) hydrolysis
- Assay type: biochemical
- testConditions: Table 2; read-out: IC50 versus NDM-1
resultType: pIC50
Keep it numeric: pIC50 is minus log10 of the concentration in mol/L.

NDM-1 (Klebsiella pneumoniae) assay, compound O=C(O)C(S)Cc1ccccc1 (stereo not shown) [Compound 13b] , recorded pIC50 = 4.41

---

Kindly supply the reported IC50 values for the records listed here.
- targetOrTestSystem: NDM-1 (Klebsiella pneumoniae, UniProt C7C422)
- Construct: made in house
- Sequence (C7C422 29-270, looked up, species assumed): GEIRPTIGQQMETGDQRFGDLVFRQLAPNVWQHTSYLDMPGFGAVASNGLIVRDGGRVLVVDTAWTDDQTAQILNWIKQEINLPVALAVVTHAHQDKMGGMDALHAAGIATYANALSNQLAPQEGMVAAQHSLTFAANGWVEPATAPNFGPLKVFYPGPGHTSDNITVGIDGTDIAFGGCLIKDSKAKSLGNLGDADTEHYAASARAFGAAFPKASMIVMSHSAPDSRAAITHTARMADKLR
- assayMethodText: NDM-1 inhibition, fluorogenic cephalosporin (FC5) hydrolysis
- Format: biochemical
- testConditions: enethiols 6 assayed as sodium salts; 10 min incubation; read-out: IC50 NDM-1
I only need the number, in µM, no unit after it.

Consider CN1CCN(NC(=O)CN2C(=O)/C(=C/c3c(Cl)ccc(Cl)c3Cl)SC2=S)CC1 [ML302, reference compound] . Its measured IC50 is 15.6

Consider O=C(O)/C(S)=C/c1ccccc1I [Compound 6i] . Its measured IC50 is 5

Consider Cc1cccc(C)c1/C=C(\S)C(=O)O [Compound 6q] . Its measured IC50 is 4.9

Consider O=C(O)/C(S)=C/c1ccccc1 [Compound 6a] . Its measured IC50 is 7.9

Consider O=C(O)/C(S)=C/c1ccccc1Br [Compound 6h] . Its measured IC50 is 16.2

---

- targetOrTestSystem: IMP-1 (Serratia marcescens, UniProt P52699)
- Construct: made in house
- Sequence (P52699 19-246, looked up, species assumed): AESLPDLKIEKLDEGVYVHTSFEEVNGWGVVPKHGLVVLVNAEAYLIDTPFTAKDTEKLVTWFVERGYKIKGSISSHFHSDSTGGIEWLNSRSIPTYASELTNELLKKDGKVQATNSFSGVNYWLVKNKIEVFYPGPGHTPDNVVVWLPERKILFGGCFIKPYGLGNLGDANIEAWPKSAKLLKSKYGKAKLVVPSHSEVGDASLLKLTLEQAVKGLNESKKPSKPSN
- assayMethodText: IMP-1 inhibition, fluorogenic cephalosporin (FC5) hydrolysis
- Assay type: biochemical
- testConditions: enethiols 6 assayed as sodium salts; 10 min incubation; read-out: IC50 IMP-1 (converted)
- Method: Inhibition analyses against bacterial MBLs and SBLs were performed as described previously.[22], [24], [26] Residual enzyme activities were determined for a range of inhibitor concentrations. Non-linear regression fitting of IC50 curves was carried out using a three-parameter dose–response curve in GraphPad Prism. Errors in IC50 values are expressed as: σ(logIC50)/logIC50×IC50 […] Figure S3: IC50 curves for IMP-1 inhibition time courses. Residual activities were calculated from the […]
resultType: IC50

IMP-1 (Serratia marcescens, UniProt P52699) assay, molecule O=C(O)/C(S)=C/c1ccccc1F [Compound 6f] , recorded IC50 = 1.4 µM

IMP-1 (Serratia marcescens, UniProt P52699) assay, molecule CN1CCN(NC(=O)CN2C(=O)/C(=C/c3cc(Cl)ccc3Cl)SC2=S)CC1 [Compound 5o] , recorded IC50 = 7 µM

IMP-1 (Serratia marcescens, UniProt P52699) assay, molecule O=C(O)CN1C(=O)/C(=C/c2c(F)cccc2F)SC1=S [Compound 3p] , recorded IC50 = > 50 µM

IMP-1 (Serratia marcescens, UniProt P52699) assay, molecule CN1CCN(NC(=O)CN2C(=O)/C(=C/c3ccccc3Br)SC2=S)CC1 [Compound 5h] , recorded IC50 = 8.3 µM

IMP-1 (Serratia marcescens, UniProt P52699) assay, molecule O=C(O)/C(S)=C/c1ccccc1 [Compound 6a] , recorded IC50 = 0.3 µM

IMP-1 (Serratia marcescens, UniProt P52699) assay, molecule O=C(O)CN1C(=O)/C(=C/c2ccccc2Br)SC1=S [Compound 3h] , recorded IC50 = 32.5 µM

IMP-1 (Serratia marcescens, UniProt P52699) assay, molecule CN1CCN(NC(=O)CN2C(=O)/C(=C/c3c(F)cccc3F)SC2=S)CC1 [Compound 5p] , recorded IC50 = 1.3 µM

IMP-1 (Serratia marcescens, UniProt P52699) assay, molecule Cc1ccc(/C=C2\SC(=S)N(CC(=O)O)C2=O)cc1 [Compound 3b] , recorded IC50 = > 50 µM

IMP-1 (Serratia marcescens, UniProt P52699) assay, molecule CN1CCN(NC(=O)CN2C(=O)/C(=C/c3ccccc3I)SC2=S)CC1 [Compound 5i] , recorded IC50 = 37.1 µM

IMP-1 (Serratia marcescens, UniProt P52699) assay, molecule Cc1cccc(C)c1/C=C1\SC(=S)N(CC(=O)O)C1=O [Compound 3q] , recorded IC50 = > 50 µM

IMP-1 (Serratia marcescens, UniProt P52699) assay, molecule Cc1ccc(/C=C2\SC(=S)N(CC(=O)NN3CCN(C)CC3)C2=O)cc1 [Compound 5b] , recorded IC50 = > 50 µM

IMP-1 (Serratia marcescens, UniProt P52699) assay, molecule CN1CCN(NC(=O)CN2C(=O)/C(=C/c3cccc(Cl)c3Cl)SC2=S)CC1 [Compound 5n] , recorded IC50 = 0.6 µM

IMP-1 (Serratia marcescens, UniProt P52699) assay, molecule CN1CCN(NC(=O)CN2C(=O)/C(=C/c3c(Cl)ccc(Cl)c3Cl)SC2=S)CC1 [ML302, reference compound] , recorded IC50 = 0.09 µM

IMP-1 (Serratia marcescens, UniProt P52699) assay, molecule O=C(O)CN1C(=O)/C(=C/c2ccc(Br)cc2)SC1=S [Compound 3d] , recorded IC50 = > 50 µM

IMP-1 (Serratia marcescens, UniProt P52699) assay, molecule O=C(O)CN1C(=O)/C(=C/c2ccccc2I)SC1=S [Compound 3i] , recorded IC50 = 22.4 µM

---

- targetOrTestSystem: IMP-1 (Serratia marcescens, UniProt P52699)
- Construct: made in house
- assayMethodText: IMP-1 inhibition, fluorogenic cephalosporin (FC5) hydrolysis
- Type: biochemical
- testConditions: enethiols 6 assayed as sodium salts; 10 min incubation; read-out: IC50 IMP-1 (converted)
Kindly supply the reported log10 of IC50 values for the records listed here.
// units: µM (pre-log); metric: IC50; scale: log10

Consider Cc1cccc(C)c1/C=C(\S)C(=O)O . Its measured log10 of IC50 is -1.70

Consider O=C(O)/C(S)=C/c1ccccc1Br . Its measured log10 of IC50 is -0.10

Consider O=C(O)CN1C(=O)/C(=C/c2c(F)ccc(F)c2F)SC1=S . Its measured log10 of IC50 is 1.67

Consider O=C(O)/C(S)=C/c1cccc(Cl)c1Cl . Its measured log10 of IC50 is 0.00

Consider O=C(O)CN1C(=O)/C(=C/c2c(Cl)cccc2Cl)SC1=S . Its measured log10 of IC50 is 1.28

Consider O=C(O)/C(S)=C/c1ccc(F)cc1 . Its measured log10 of IC50 is 0.43

---

- targetOrTestSystem: IMP-1 (Serratia marcescens, UniProt P52699)
- Construct: made in house
- assayMethodText: IMP-1 inhibition, fluorogenic cephalosporin (FC5) hydrolysis
- Assay type: biochemical
- testConditions: enethiols 6 assayed as sodium salts; 10 min incubation; read-out: IC50 IMP-1 (converted)
resultType: IC50 (µM)
I only need the number, in µM, no unit after it.

Consider O=C(O)/C(S)=C/c1ccc(Br)cc1 [Compound 6d] . Its measured IC50 is 3.3

Consider CN1CCN(NC(=O)CN2C(=O)/C(=C/c3c(F)ccc(F)c3F)SC2=S)CC1 [Compound 5k] . Its measured IC50 is 1.6

Consider CN1CCN(NC(=O)CN2C(=O)/C(=C/c3ccc(Br)cc3)SC2=S)CC1 [Compound 5d] . Its measured IC50 is 28.7

Consider CN1CCN(NC(=O)CN2C(=O)/C(=C/c3c(Cl)cccc3Cl)SC2=S)CC1 [Compound 5m] . Its measured IC50 is 0.2

Consider O=C(O)/C(S)=C/c1c(Cl)ccc(Cl)c1Cl [ML302F, reference compound] . Its measured IC50 is 0.02

Consider COc1ccc(/C=C2\SC(=S)N(CC(=O)NN3CCN(C)CC3)C2=O)cc1 [Compound 5e] . Its measured IC50 is 31.5

Consider O=C(O)/C(S)=C/c1cc(Cl)ccc1Cl [Compound 6o] . Its measured IC50 is 4.7

Consider O=C(O)/C(S)=C/c1ccccc1I [Compound 6i] . Its measured IC50 is 0.7

Consider O=C(O)CN1C(=O)/C(=C/c2c(F)cccc2Cl)SC1=S [Compound 3j] . Its measured IC50 is 43.7

Consider O=C(O)/C(S)=C/c1c(Cl)cccc1Cl [Compound 6m] . Its measured IC50 is 0.01

Consider O=C(O)/C(S)=C/c1c(F)cccc1F [Compound 6p] . Its measured IC50 is 0.2

Consider O=C(O)/C(S)=C/c1c(F)ccc(F)c1F [Compound 6k] . Its measured IC50 is 0.4

Consider O=C(O)CN1C(=O)/C(=C/c2ccccc2Cl)SC1=S [Compound 3g] . Its measured IC50 is 43.2

Consider CN1CCN(NC(=O)CN2C(=O)/C(=C/c3ccccc3F)SC2=S)CC1 [Compound 5f] . Its measured IC50 is 22.6

Consider O=C(O)/C(S)=C/c1c(F)cccc1Cl [Compound 6j] . Its measured IC50 is 0.03

Consider O=C(O)CN1C(=O)/C(=C/c2cccc(Cl)c2Cl)SC1=S [Compound 3n] . Its measured IC50 is 46.2

Consider CN1CCN(NC(=O)CN2C(=O)/C(=C/c3ccccc3Cl)SC2=S)CC1 [Compound 5g] . Its measured IC50 is 7.6

Consider COc1ccc(/C=C(\S)C(=O)O)cc1 [Compound 6e] . Its measured IC50 is 0.8
